- System: MS2 coat protein
- assay.text: apparent KD of MS2 coat protein; designed switch direction (-1 OFF switch, 1 ON switch): -1; higher = weaker reporter binding
- assay.conditions: Eterna round: R95; input ligand: FMN 200 uM
apparent KD of MS2 coat protein: recorded values
The answer is to be given in nM; state only the numeric part.

Query block: Item under review: CGGUGCUGAGGAUAUACAUGAGGAUCACCCAUGUGUUCCAGCUAGCGUACUGGCAGGUGUAGAAGGCGGUACUG [JL-ex3-3.41 Brourd mod] (puzzle: Exclusion 3) . Reported apparent KD of MS2 coat protein?
Result block: 68.7

Query block: Item under review: UCAAGUAUGUAGGAUAUGAUGUGAUUCUACAUAUCAGAAGGACGUACAUGAGGAUCACCCAUGUAACUUGCAUG [Exclusion 6 - B - 12:d] (puzzle: Exclusion 6) . Reported apparent KD of MS2 coat protein?
Result block: 96.2

Query block: Item under review: GGAAAGCAAGGAUAUACGAGGAGAAGGAGGAAAGUAAAAGGACAUGAGGAUCACCCAUGUAGAAGGUGCGAGAG [JR_Exclu2_Sub040] (puzzle: Exclusion 2) . Reported apparent KD of MS2 coat protein?
Result block: 27.6

Query block: Item under review: GGAGUACAUGAGGAUCACCCAUGUGAGGAUAUGUAAGGAUAGUAGGUAAGGAAAGAGGACAGAAGGCACGGGAA [JR_Exclu1_Sub070] (puzzle: Exclusion 1) . Reported apparent KD of MS2 coat protein?
Result block: 46

Query block: Item under review: AAACGUAGACAGGAUAUCUGCGCCCUUGGUUAAAGAGAAGGGUCUACAUGAGGAUCACCCAUGUGGUGUAACUC [Dibedididi] (puzzle: Exclusion 6) . Reported apparent KD of MS2 coat protein?
Result block: 13.8

* * *

- Test system: MS2 coat protein
- assay.text: apparent KD of MS2 coat protein; designed switch direction (-1 OFF switch, 1 ON switch): -1; higher = weaker reporter binding
- assay.conditions: Eterna round: R95; input ligand: none
readout: apparent KD of MS2 coat protein (nM)
The answer is to be given in nM; state only the numeric part.

1) AUGAGCAGACGGAGAUCCAACAUGAGGAUCACCCAUGUCUCAAAAGCUUUUUGCUCAUCUUAUUGUACCUUGGUGCA [Mat - Sensor v3 - turn-off var 1 - JL Mod - D17] (puzzle: Sensor v3, turn-off variant 1) : 213

Query block: Item under review: CGUGACUGAGGAUAUCUAUAAUAUCACAUGAGGAUCACCCAUGUCCAGCGAAAGCUGGAAGGAGAAGGCAGUCACG [Fiskers Ex 5 - 34] (puzzle: Exclusion 5) . Reported apparent KD of MS2 coat protein?
Result block: 25.1

Query block: Item under review: CUUCACCCACUAGAGCUCACCCACAAACCUACUCUAGUGACAUGAGGAUCACCCAUGUUUUUUGCCCGUCUUAUCUU [Qugeenerce] (puzzle: Sensor v3, turn-off variant 2) . Reported apparent KD of MS2 coat protein?
Result block: 41.4

* * *

- Tested on: K4 kissing-loop RNA reporter;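 also: bound reporter read as fluorescence of individual clusters on recovered sequencing chips by microscopy, with normalized cluster intensities fitted with a binding model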
- assay.text: apparent KD of K4 kissing-loop reporter; higher = weaker reporter binding
- assay.conditions: Eterna round: R107; input ligand: arginine 13.2 mM
readout: apparent KD of K4 kissing-loop reporter (µM)
The answer is to be given in µM; state only the numeric part.

Recorded results for 6 sequences are shown here.
1. GGUAGCAUGGCGGCCGCCACUUCAAUUGGAGUGAUGUUCCAAGGCAUCGCGAAAGCGAUGCCAGGAAGGACCGGGCCAUGCUACC : 0.224
2. UUCUUGAUGGAAACAUCGAGUAUUACUGAUACCAGUAUCGAUAGAUACCCUUGGCAGCAGAAUCAGUAAUAACGAGUGAUGUUCG [Ex Theophylline A K4 5] : 0.494
3. CACGGUUAUACGGCCGCCACUGAUUGCGUUGCAGUGAUGUUGCACGCGUCCGACUACACCUCAUUCAGGACCGGGUAGACAUGCA [theeternabot_exclusion_KL_Trp_B_11] : 0.163
4. AAGUGUGUGGCGGCCGCCACUAGUCUCCAGUGAUGUUGGAGAUAUCACGUAAGUGAUAUCCGACAUAGGACCGGGCCAUAUAGAA [Same State - Tryptophan B (Freestyle 21)] : 0.318
5. CUGGGUUGACGAAAAGUCAACAAAAGAGAAGGAGCGCACGAAAGUGCAGGUAGGUCGCUCAAUCCAGUGAUGUUGGGUCAUCCAG [#SwitchBubble 14 #K4Late] : 0.58
6. GUGUGACUAGUGAUGUUGGUUGCGUGGGAAGGAGCGCAGUAAAAUGCAGGUAGGUCGCCCGUAUCUCUGAUAAAAGAUUAAUUCA [KL-SSArg-A10] : 0.128

Query block: Item under review: GAUGAUCGCGCGGCCGCCACUGGUCAGUGAUGUUGACAUUAAGGCGCCGAGUAGUAACGGCGCCACAGGACCGGGCGCGAUGUAG [First Shot] . Reported apparent KD of K4 kissing-loop reporter?
Result block: 0.155

Query block: Item under review: AUUAAUUUCAGAGGAUAUCGUUAUUUUUUAUAGUAUAUUCAAUUAUGCAGUGAUGUUGCUAUUAAUCGAGAAGGCUGAUUUAUAA [JR_ExcFMNB_Sub002] . Reported apparent KD of K4 kissing-loop reporter?
Result block: 0.204

Query block: Item under review: UGGACGUUAUACAAUAAGUAUAACUGGGAUACCAGUGACGAAAGUCACCCUUGGCAGCUCAACUGCCAGUGAUGUUGGUAGUCCA [Astros-Eli-mod#5] . Reported apparent KD of K4 kissing-loop reporter?
Result block: 0.116

Query block: Item under review: ACGUGUCACUGAAGGAGCGUCUACCGAAUACGAGUGAUGUUGGUAUACCACUUAUAUAGUGGACAGGUAGGUCGCAGUGAUACGU [Arg B Ex t4] . Reported apparent KD of K4 kissing-loop reporter?
Result block: 0.769

Query block: Item under review: GAUUCAGUGAUGUUGGAAGGCGAGCGGGAUACCAGCCGAGACUCAGGCCCUUGGCAGCCCACAUAUCCCAGGUAGAUAGUCGCUC [Same State - Theophylline A (Freestyle 10)] . Reported apparent KD of K4 kissing-loop reporter?
Result block: 0.266

Query block: Item under review: AGGUUUUGAUUAGGAUAUGCACUGAGGAGGAGAAUAUAGUGAUGUUAUAUAAGAGGAAGGAGAAGAGUAGAAGGGAUUGAGGUUU [SSFMNB.Q] . Reported apparent KD of K4 kissing-loop reporter?
Result block: 0.285

* * *

apparent KD of MS2 coat protein: recorded values
- System: MS2 coat protein
- assay.text: apparent KD of MS2 coat protein; designed switch direction (-1 OFF switch, 1 ON switch): -1; higher = weaker reporter binding
- assay.conditions: input ligand: FMN 200 uM
The answer is to be given in nM; state only the numeric part.

Recorded results for 5 sequences are shown here.
1. UACAUGAGGAUCACCCAUGUUUUGUCGUGUAUGGUAUUUAUCUAGGAUAUCAAUCUAUUUAGUUAUGAGAAGGAGAAUAUUAAU [JMF's solution 54] (Eterna round: R96, puzzle: Exclusion NG 3) : 39.1
2. AAUAAUUGUGACUUGGGUGACAUGAGGAUCACCCAUGUCACAAGCUUGUUGCUCGCCUUAUAAUUAACCCAUGUCAC [LRO Sensor-off var1-26 mod of Stov1-13-A1 by Brourd] (Eterna round: R97, puzzle: Sensor, turn-off variant 1) : 70.5
3. AUUUAGCAAGCCUGAUCCUACAUGAGGAUCACCCAUGUAGUUCGUCUUAUUUGAAGACAACACAAAAGUGUUGUCUU [Omei Mir OFFv1 B7] (Eterna round: R97, puzzle: Sensor, turn-off variant 1) : 18.3
4. GUAAAUCAUGUAGGAUAUGCGUGGCGAAGCUAUGCAGAAGGACAUGAGGAUCACCCAUGUGCUUCCGUCUGAGAACAGACGGAG [Mat - Exclusion NG 1 - Mod of JL - D28] (Eterna round: R96, puzzle: Exclusion NG 1) : 222
5. AAACACCAAGGAUAUACAUGAGGAUCACCCAUGUGGUCCGGCACGGGUCUCGAUUCGAGUAGAAGGUGGAUGGG [Eternabot (L1) Solution 80] (Eterna round: R97, puzzle: Exclusion 3) : 56.7

Query block: Item CGGAGACAUGAGGAUCACCCAUGUGAGGAUAUGGCGUGCGCUACUAAAGGUGGUUGCUCCAGAAGGCGCGGUGU [Eternabot (L1) Solution 3] (Eterna round: R97, puzzle: Exclusion 1) with MS2 coat protein - apparent KD of MS2 coat protein?
Result block: 74.5

Query block: Item GUACCAGAUGUCAGGAUAUGCUUUGAGAGUUGCGAGUAGAAGGGACAUGAGGAUCACCCAUGUACCUACAGGAA [BmEX4 B.30] (Eterna round: R97, puzzle: Brourd's mod of Exclusion 4) with MS2 coat protein - apparent KD of MS2 coat protein?
Result block: 14.7

Query block: Item AGGUCACAUGAGGAUCACCCAUGUCAGGAUAUCUACAUUGAAGCCUCGGCUUCAAUGUAGAGAAGGGACAAUUA [E1/6-B2] (Eterna round: R97, puzzle: Exclusion 1) with MS2 coat protein - apparent KD of MS2 coat protein?
Result block: 209

Query block: Item GGACUAGGAGGAUAUACAUGAGGAUCACCCAUGUGUUGAUAAAGUCUACACAAUGUUAGUAGAAGGCUUAGACC [Eternabot (L2) Solution 18] (Eterna round: R97, puzzle: Exclusion 3) with MS2 coat protein - apparent KD of MS2 coat protein?
Result block: 22.5
